# Tested on: M14 melanoma
# protocol_summary: NCI tumour cell line growth inhibition, 48 h; in the data active = GI50 below about 0.43 µM; inactive = the rest
Answer with one of the outcomes active, inactive

Look over these answered cases.
CCN1CCN(c2nc(NCCNc3ccnc4cc(Cl)ccc34)c3ccccc3n2)CC1: inactive
COc1cccc(-c2nn(-c3ccccc3)cc2-c2ccnc(NCCCNS(=O)(=O)c3cccc(F)c3)c2)c1: inactive
CNC(=O)c1cc(Oc2ccc3c(c2)sc2nc(-c4ccc(N)cc4)cn23)ccn1: active

Q) Which result was noted for this compound in the test: `N#Cc1c(O)c2c(c(O)c1C#N)C(=O)c1ccccc1C2=O`
A) active

Q) Now this one: `COc1nc2c(cc1S(=O)(=O)c1ccccc1)CCc1c-2cnn1-c1ccccc1Cl`
A) inactive

Q) Now this one: `O=C1c2ccccc2-c2c1c1cc3c(cc1c(=O)n2CCCCl)OCO3`
A) inactive

Q) Now this one: CCCCCCCCCCCCOC1C(CNCC2OC3OC(C)(C)OC3C2NC(=O)Nc2ccc(C(=O)OCC)cc2)OC2OC(C)(C)OC21 (stereo not drawn)
A) inactive

Q) Now this one: `Cn1c(-c2nonc2N)nc2cnccc21`
A) inactive
